Data origin: patent US20110038869A1

Biological target: T1, CD32bECDHis (human, UniProt P31994 43-223, limits assumed)
T1 construct: Produced in HEK-293F cells; also called extracellular domain of CD32b with C-terminal His tag; soluble CD32b
T1 sequence (looked up): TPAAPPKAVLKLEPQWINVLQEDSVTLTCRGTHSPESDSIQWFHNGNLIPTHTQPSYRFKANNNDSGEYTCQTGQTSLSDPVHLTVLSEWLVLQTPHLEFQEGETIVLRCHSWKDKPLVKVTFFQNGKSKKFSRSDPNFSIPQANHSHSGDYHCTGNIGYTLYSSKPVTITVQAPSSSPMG
Test: SPR BIAcore 3000, antibody immobilized, CD32bECDHis analyte
Kd reference

BINDER | Kd [nM]
Antibody 024 (antibody, V domains shown, also called HuMab 024) VH: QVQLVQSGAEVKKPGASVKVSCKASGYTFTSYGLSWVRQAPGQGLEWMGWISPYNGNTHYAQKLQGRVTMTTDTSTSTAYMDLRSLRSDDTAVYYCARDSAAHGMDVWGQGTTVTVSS VL: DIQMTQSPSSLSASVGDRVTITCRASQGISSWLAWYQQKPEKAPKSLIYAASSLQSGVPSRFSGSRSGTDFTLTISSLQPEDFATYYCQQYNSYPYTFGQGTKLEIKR | 0.9
Antibody 038 (antibody, human IgG1, V domains shown, Human antibody; also called HuMab 038) VH: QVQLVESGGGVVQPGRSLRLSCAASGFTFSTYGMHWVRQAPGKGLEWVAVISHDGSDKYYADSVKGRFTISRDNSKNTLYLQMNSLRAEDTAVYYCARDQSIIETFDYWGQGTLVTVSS VL: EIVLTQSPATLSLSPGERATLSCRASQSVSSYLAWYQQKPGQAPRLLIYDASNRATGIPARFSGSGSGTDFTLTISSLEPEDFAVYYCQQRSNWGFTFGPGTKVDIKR | 1
Antibody 020 (antibody, V domains shown, also called HuMab 020) VH: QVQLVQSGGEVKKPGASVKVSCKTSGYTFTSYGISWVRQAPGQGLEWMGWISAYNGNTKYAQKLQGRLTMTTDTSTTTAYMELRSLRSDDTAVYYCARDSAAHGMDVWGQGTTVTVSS VL: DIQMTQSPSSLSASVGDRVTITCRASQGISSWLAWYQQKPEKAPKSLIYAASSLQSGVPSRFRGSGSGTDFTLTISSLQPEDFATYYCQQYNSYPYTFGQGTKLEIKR | 2.4
Antibody 026 (antibody, V domains shown, Human antibody; also called HuMab 026) VH: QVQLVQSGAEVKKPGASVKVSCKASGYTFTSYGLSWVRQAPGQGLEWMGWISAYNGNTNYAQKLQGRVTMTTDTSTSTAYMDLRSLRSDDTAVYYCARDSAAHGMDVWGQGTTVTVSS VL: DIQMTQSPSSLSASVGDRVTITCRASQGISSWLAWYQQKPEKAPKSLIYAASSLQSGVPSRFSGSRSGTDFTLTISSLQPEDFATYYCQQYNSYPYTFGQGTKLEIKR | 1.3
Antibody 028 (antibody, V domains shown, List 1 gives no VL for antibody 028; The VL is therefore uncertain; also called HuMab 028) VH: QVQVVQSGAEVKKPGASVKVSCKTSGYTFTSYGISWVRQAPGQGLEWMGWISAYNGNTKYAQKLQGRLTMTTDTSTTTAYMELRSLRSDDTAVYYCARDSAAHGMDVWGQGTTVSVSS VL: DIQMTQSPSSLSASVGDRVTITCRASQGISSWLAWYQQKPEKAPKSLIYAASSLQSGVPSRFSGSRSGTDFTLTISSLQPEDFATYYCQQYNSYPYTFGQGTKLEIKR | 1.3
Antibody 022 (antibody, V domains shown, also called HuMab 022) VH: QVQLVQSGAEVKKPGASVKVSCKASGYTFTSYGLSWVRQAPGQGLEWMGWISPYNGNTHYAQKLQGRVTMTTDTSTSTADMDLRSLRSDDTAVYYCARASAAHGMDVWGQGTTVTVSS VL: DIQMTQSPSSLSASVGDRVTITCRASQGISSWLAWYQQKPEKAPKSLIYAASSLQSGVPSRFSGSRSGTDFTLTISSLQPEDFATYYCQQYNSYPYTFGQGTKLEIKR | 0.7
Antibody 016 (antibody, human IgG1, V domains shown, Human antibody; also called HuMab 016) VH: QVQLVESGGGVVQPGRSLRLSCAASGFTFSSYGIHWVRQAPGKGLEWVAVIGYDGSDKNYADSVKGRFTIFRDNSKNTLYLQMNSLRAEDTAVYYCARDQLGDAFDIWGQGTMVTVSS VL: EIVLTQSPATLSLSPGERATLSCKASQSVSSSLAWYQQKPGQAPRLLIYDASNRATGIPARFSGSGSGTDFTLTISSLEPEDFAVYYCQQRSNWPPYTFGQGTKLEIKR | 1.1
